Origin of measurements: the supplement of paper PMC11061612

We begin with a simple list: items and their reported Bliss excess.
# System: NCI-H2342 (Lung Adenocarcinoma);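 further: after 72 h of two-drug dosing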
# ASSAY_COMMENT: Bliss excess, mean over the matrix (fraction); higher = more synergy

Consider the following illustrative entries.
{"columns": ["MOLECULE", "Bliss excess"],
 "data": [
  ["Cn1cnc2c(F)c(Nc3ccc(Br)cc3Cl)c(C(=O)NOCCO)cc21 [Selumetinib] + C=CCn1c(=O)c2cnc(Nc3ccc(N4CCN(C)CC4)cc3)nc2n1-c1cccc(C(C)(C)O)n1 [AZD1775] (first compound max 10 µM, partner max 1 µM)", -0.0366],
  ["CC1(C)CCC(CN2CCN(c3ccc(C(=O)NS(=O)(=O)c4ccc(NCC5CCOCC5)c([N+](=O)[O-])c4)c(Oc4cnc5[nH]ccc5c4)c3)CC2)=C(c2ccc(Cl)cc2)C1 [Venetoclax] + Cn1cnc2c(F)c(Nc3ccc(Br)cc3Cl)c(C(=O)NOCCO)cc21 [Selumetinib] (first compound max 1 µM, 7x7, partner max 3 µM)", -0.0628],
  ["Cn1cnc2c(F)c(Nc3ccc(Br)cc3Cl)c(C(=O)NOCCO)cc21 [Selumetinib] + CC(C)n1c(=O)n(C)c2cnc3cc(F)c(-c4ccc(OCCCN5CCCCC5)nc4)cc3c21 [AZD1390] (first compound max 10 µM, 7x7, partner max 0.3 µM)", -0.0489],
  ["CN(CCO)CC[C@H](CSc1ccccc1)Nc1ccc(S(=O)(=O)NC(=O)c2ccc(N3CCC([C@@H](O)c4ccccc4-c4ccc(Cl)cc4)CC3)cc2)cc1S(=O)(=O)C(F)(F)F [AZD4320] + C[C@@H](Nc1cc(F)cc(F)c1)c1cc(C(=O)N(C)C)cc2c(=O)cc(N3CCOCC3)oc12 [AZD8186] (first compound max 1 µM, 7x7, partner max 3 µM)", -0.0065],
  ["CC1(C)CCC(CN2CCN(c3ccc(C(=O)NS(=O)(=O)c4ccc(NCC5CCOCC5)c([N+](=O)[O-])c4)c(Oc4cnc5[nH]ccc5c4)c3)CC2)=C(c2ccc(Cl)cc2)C1 [Venetoclax] + Cc1cc2ncnn2cc1Nc1ncc2c(n1)n(C1CCOCC1)c(=O)n2C [AZD7648] (first compound max 1 µM, 7x7, partner max 10 µM)", -0.0473]
]}

query: Give Bliss excess for the following molecule: Cc1cc2ncnn2cc1Nc1ncc2c(n1)n(C1CCOCC1)c(=O)n2C [AZD7648] + O=C(c1cc(Cc2n[nH]c(=O)c3ccccc23)ccc1F)N1CCN(C(=O)C2CC2)CC1 [Olaparib] (first compound max 10 µM, 7x7, partner max 10 µM)
result: -0.0548

query: Return Bliss excess for the following molecule: COc1cccc(OCCCN)c1-c1cc(Nc2cnc(C#N)cn2)n[nH]1 [Prexasertib] + C[C@@H]1COCCN1C2=NC(=NC(=C2)C3(CC3)[S@](=N)(=O)C)C4=C5C=CNC5=NC=C4 [AZD6738] (first compound max 1 µM, 7x7, partner max 10 µM)
result: 0.0378

* * *

# System: SHP-77 (Small Cell Lung Carcinoma)
# ASSAY_COMMENT: combination Emax (second highest fraction inhibited in the dose matrix, 72 h); higher = more inhibition; extreme values may be limits of the assay
Reported combination Emax by item:
Give the figure by itself; no unit, no explanation.

query: Answer with the recorded combination Emax of Cc1c2c(nn1C)CSCc1cc(n(C)n1)CSc1cc(c3ccccc3c1)OCCCc1c(C(=O)O)n(C)c3c-2c(Cl)ccc13 [AZD5991] + CC(=O)O[C@H]1C(=O)[C@@]2(C)[C@H]([C@H](OC(=O)c3ccccc3)[C@]3(O)C[C@H](OC(=O)[C@H](O)[C@@H](NC(=O)c4ccccc4)c4ccccc4)C(C)=C1C3(C)C)[C@]1(OC(C)=O)CO[C@@H]1C[C@@H]2O [Paclitaxel] (first compound max 1 µM, 7x7, partner max 3 µM) only.
result: 0.971

query: Report combination Emax for CS(=O)(=O)CCNCc1ccc(-c2ccc3ncnc(Nc4ccc(OCc5cccc(F)c5)c(Cl)c4)c3c2)o1 [Lapatinib] + NC1(c2ccc(-c3nc4ccn5c(=O)[nH]nc5c4cc3-c3ccccc3)cc2)CCC1 [MK-2206] (first compound max 10 µM, 7x7, partner max 10 µM)
result: 0.633
